- procedure-text: Human HepG2 cell viability assay in 384 well format
- Type: toxicity, cell-based
- Parameters: dose 125 nL, time 70.5 hour; concentration not given beside the values
- measurement-context: HepG2 cells, read-out: Inhibition
# cytotoxicity at 70.5 h values compiled below

{"columns": ["compound", "cytotoxicity at 70.5 h, %"],
 "data": [
  ["CCCc1noc(C2CCN(C(=O)C3CCCO3)CC2)n1 (stereo unspecified)", -13.7],
  ["COCC1CN(CCOc2ccc(Cl)cc2)Cc2c1cnn2C (stereo unspecified)", -6.25],
  ["CN(C)C(=O)CN1CCC2(CC1)CN(S(C)(=O)=O)Cc1ccccc1O2", -4.65],
  ["c1ccc(CN2CCC(NCCSc3ncn[nH]3)C2)cc1 (stereo unspecified)", 30.4],
  ["Cc1c(Br)cccc1C(=O)NC(C)CN1CCCC1=O (stereo unspecified)", 1.84],
  ["Cc1cc(CN(CC(N)=O)CC(C)C)no1", -4.27],
  ["Cn1cc(C(=O)N2CC[C@@H]3[C@@H]2CCN3c2ccccn2)cn1", -5.62],
  ["O=C(NCc1ccco1)[C@H]1CC[C@@H]2[C@@H](CCN2Cc2cccnc2)O1", -5.95],
  ["CCC(=O)N1CCC(O)(c2ncc(OC)nc2OC)CC1", -12.8],
  ["CCc1cc(N2CCCC(c3noc(CC)n3)C2)ncn1 (stereo unspecified)", -5.13],
  ["CC(=O)Nc1ccc(Cl)c(C(=O)N(C)C(C)c2ccncn2)c1 (stereo unspecified)", -0.237]
]}

###

- procedure-text: Human HepG2 cell viability assay in 384 well format
- Format: toxicity, cell-based
- Parameters: dose 125 nL, time 70.5 hour; concentration not given beside the values
- measurement-context: HepG2 cells, read-out: Inhibition

{"columns": ["molecule", "units-text", "cytotoxicity at 70.5 h"],
 "data": [
  ["Cn1cc(C(NCCc2ccccn2)c2cccc(F)c2)cn1 (configuration not stated)", "%", -5.84],
  ["O=C(C1CC1)N1CCC2(CC1)CNCc1ccccc12", "%", 18.9],
  ["CCCOc1ccc(CCC(=O)Nc2nonc2C)cc1", "%", -4.36],
  ["CCc1nccn1C1CCCN(C(=O)CCc2nccs2)C1 (configuration not stated)", "%", -15.8],
  ["COc1ccc2c(c1)ncn2C[C@]1(O)CCCN2CCCC[C@@H]21", "%", -13.3],
  ["Cc1cc(C)n(CC2CN(c3cnc4ccccc4n3)CCO2)n1 (configuration not stated)", "%", -8.47],
  ["O=C(c1[nH]c2ccc(Cl)cc2c1Cl)N1CCC2(CC1)OCCO2", "%", -0.999],
  ["CN(Cc1nnc(-c2cccs2)o1)Cc1nc2c(s1)CCCC2", "%", -14.1],
  ["CC(C)(C)n1ncc2c1CCCC2NCc1ccc2c(c1)OCCO2 (configuration not stated)", "%", 29.2],
  ["c1ccc(-c2cnn3cc(CN4CCC5(CCO5)CC4)cnc23)cc1", "%", 1.13],
  ["O=C(c1cccnc1)N1CCC[C@]2(C[C@H](Oc3ncccc3F)CO2)C1", "%", 0.397],
  ["CN1CCCCC1CCC(=O)NCCSc1cnn[nH]1 (configuration not stated)", "%", -2.59]
]}

###

- procedure-text: Human HepG2 cell viability assay in 384 well format
- Assay type: toxicity, cell-based
- Design: dose 125 nL, time 70.5 hour; concentration not given beside the values
- measurement-context: HepG2 cells, read-out: Inhibition

{"columns": ["compound", "units-text", "cytotoxicity at 70.5 h"],
 "data": [
  ["c1cnnc(N2CCCC2CNCc2csc(-c3ccco3)n2)c1 (stereo unspecified)", "%", -11.5],
  ["CC(C)S(=O)(=O)NC(=O)CC(c1ccccc1)C(F)(F)F (stereo unspecified)", "%", -9.01],
  ["CC(C)CN1CCS(=O)(=O)[C@@H]2CCN(S(=O)(=O)c3ccccc3)CC[C@@H]21", "%", -1.95],
  ["CCn1nc(C)c2ncnc(N(C)Cc3ccco3)c21", "%", -1.38],
  ["CC1CCCN(C(=O)c2occc2COc2cccc(C#N)c2)C1 (stereo unspecified)", "%", 4.5],
  ["Cc1ccc(CNc2cc(N3CCCC3CO)ncn2)s1 (stereo unspecified)", "%", -0.592]
]}
